Tested on: Pichia kudriavzevii
protocol_description: Antifungal activity against Candida krusei MTCC 3020 assessed as inhibition of fungal growth incubated for 24 hrs by agar well diffusion method
Format: functional
experimental_setup: MTCC 3020, 24 h
assay_metric: MIC (µg/mL)
Numbers only here, please. The scale is µg/mL.

Here are 5 compounds together with their reported answers.
INSERT INTO assay_data (compound, readout_number) VALUES
  ('O=C(N/N=C/c1ccc(O)cc1)c1n[nH]c2c1Cc1ccccc1-2', 15.6),
  ('Clc1ccc(COC(Cn2ccnc2)c2ccc(Cl)cc2Cl)c(Cl)c1 (stereo unspecified)', 3.9),
  ('COc1ccc2c(c1)Cc1c(C(=O)N/N=C/c3ccc(O)c(OC)c3)n[nH]c1-2', 7.8),
  ('COc1cc(/C=N/NC(=O)c2n[nH]c3c2Cc2ccccc2-3)ccc1O', 15.6),
  ('O=C(N/N=C/c1ccc(O)cc1)c1n[nH]c2c1Cc1cc(F)ccc1-2', 15.6);

Continue with the next compound.
Record `COc1ccc2c(c1)Cc1c(C(=O)N/N=C/c3c(F)cc(F)cc3F)n[nH]c1-2` . Reported MIC: 15.6
